The measurements presented in this section are drawn from ChEMBL document CHEMBL1201861.

# Test system: EFE-184
# METHOD SUMMARY: cells
# Format: functional, cell-based, Homo sapiens
# ASSAY CONDITIONS: Homo sapiens, EFE-184
# Description: SANGER: Inhibition of human EFE-184 cell growth in a cell viability assay.
Catalogue of IC50 values

MOLECULE SMILES	IC50
CCC/C=C/C=C/C(=O)O[C@H]1/C(=C/C(=O)OC)C[C@H]2C[C@H]([C@@H](C)O)OC(=O)C[C@H](O)C[C@@H]3C[C@H](OC(C)=O)C(C)(C)[C@](O)(C[C@@H]4C/C(=C/C(=O)OC)C[C@H](/C=C/C(C)(C)[C@]1(O)O2)O4)O3	> 0.008 µM
O=C(O)c1ccc(-c2c[nH]c3ncc(-c4ccccc4)cc23)cc1C1CCCC1	> 16 µM
C=C(c1ccc(C(=O)O)cc1)c1cc2c(cc1C)C(C)(C)CCC2(C)C	> 8 µM
